- Tested on: Wnt activity (Sp5-Luc reporter, SW480 colon carcinoma cells)
- Assay text: Sp5-Luc Wnt reporter gene assay in SW480 colon carcinoma cells
- Type: cell-based
- Measurement setup: Homo sapiens; SW480 cells stably expressing Sp5-Luc reporter; 42 h incubation; BrightGlo luminescence normalized to DMSO
pIC50: −log10 of the molar value.
Overview of recorded pIC50 for various compounds
Reported metric: pIC50

• CC(C)CC(=O)Nc1cncc(-c2cnc3[nH]nc(-c4nc5c(-c6cc(F)cc(OCCN7CCCC7)c6)nccc5[nH]4)c3c2)c1 = 6.35
• O=C(Nc1cncc(-c2cnc3[nH]nc(-c4nc5c(-c6cccs6)nccc5[nH]4)c3c2)c1)C1CC1 = 8.05
• CN1CCN(c2nccc3[nH]c(-c4n[nH]c5ncc(-c6cncc(NC(=O)C7CCCC7)c6)cc45)nc23)CC1 = 5.81
• Fc1cccc(-c2nccc3[nH]c(-c4n[nH]c5ncc(-c6cnccn6)cc45)nc23)c1 = 6.15
• Cc1ccc(-c2nccc3[nH]c(-c4n[nH]c5ncc(-c6cncc(NC(=O)C7CCCC7)c6)cc45)nc23)s1 = 7.52
